B1: RAB40B (parent)
chain: YSLTTSSTHKRSSLRKVKLVRPPQ

Variants of: B1
Test: protein stability index of a GFP-peptide fusion (GPS, HEK-293T) (PSI 1-6); higher = more stable;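 also: lentivirally expressed fusions sorted by FACS into six bins by GFP to DsRed ratio, PSI derived from sequencing read proportions per bin multiplied by bin number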
Conditions: c terminus: a fixed tail appended
Returns class 1 if the recorded protein stability index is greater than or equal to 3, and class 0 otherwise.

Some solved cases for reference:
- S6F: class 0
- K10L: class 0
- S7G: class 1
- S7W: class 0
- L3Q: class 1

Hi, just wondering whether H9M shows protein stability index of 3 or higher.
class 0

Hi, just wondering whether S7E shows protein stability index of 3 or higher.
class 1

Hi, just wondering whether Q24F shows protein stability index of 3 or higher.
class 0

Hi, just wondering whether T8A shows protein stability index of 3 or higher.
class 0

Hi, just wondering whether V20N shows protein stability index of 3 or higher.
class 0

Hi, just wondering whether P23K shows protein stability index of 3 or higher.
class 1

// provenance: the supplement of paper PMC10567573
